system: BRCA-1 silenced HeLa cells (HeLa shBRCA1-GFP); test: Proliferation assay in BRCA-1 silenced HeLa cells; format: cell-based; conditions: Homo sapiens; BRCA1 silenced HeLa cells, 168 hours; read-out: CC50 in the BRCA1 silenced HeLa cells
Structures can show the parent of a compound that is named as a salt.
Listing of entries alongside the reported CC50.

# annotated cases, reported CC50 shown
| Molecule | Measured on | CC50 |
| --- | --- | --- |
| Cc1c(Cc2ccc(F)c(C(=O)N3CC(=O)N(c4ccc(F)c(F)c4)[C@H](C)C3)c2)n[nH]c(=O)c1C | BRCA-1 silenced HeLa cells (HeLa shBRCA1-GFP) | < 0.05 µM |
| Cc1c(Cc2ccc(F)c(C(=O)N3CCN(CC(C)C(F)(F)F)C(=O)C3)c2)n[nH]c(=O)c1C (stereo not shown) [Example 45, trifluoroacetate] | BRCA-1 silenced HeLa cells (HeLa shBRCA1-GFP) | < 5 µM |
| Cc1c(Cc2ccc(F)c(C(=O)N3CCN(Cc4ccc(F)cc4)C(=O)C3)c2)n[nH]c(=O)c1C [Example 8, trifluoroacetate] | BRCA-1 silenced HeLa cells (HeLa shBRCA1-GFP) | < 5 µM |
| Cc1c(Cc2ccc(F)c(C(=O)N3CCN(c4ccc(F)cc4)C(=O)C3)c2)n[nH]c(=O)c1C [Example 40, trifluoroacetate] | BRCA-1 silenced HeLa cells (HeLa shBRCA1-GFP) | 0.05 to 0.5 µM |
| Cc1c(Cc2ccc(F)c(C(=O)N3CCN(c4cncs4)C(=O)C3)c2)n[nH]c(=O)c1C [Example 63, trifluoroacetate] | BRCA-1 silenced HeLa cells (HeLa shBRCA1-GFP) | < 0.05 µM |
| C[C@@H]1CN(C(=O)c2cc(Cc3cc(C(F)(F)F)c(=O)[nH]n3)ccc2F)CC(=O)N1C1CCCC1 | BRCA-1 silenced HeLa cells (HeLa shBRCA1-GFP) | < 0.05 µM |

# input for lookup
[Q] What does the data say about its CC50? Entry: `Cc1c(Cc2ccc(F)c(C(=O)N3CCN([C@@H](C)C(F)(F)F)C(=O)C3)c2)n[nH]c(=O)c1C`
[A] 0.05 to 0.5 µM

----------
Listing of entries alongside the reported IC50.
target: PARP-1 (Homo sapiens); construct: purchased Trevigen 4668-500-01; assay: PARP-1 SPA assay; type: biochemical
Sequence (P09874 whole entry): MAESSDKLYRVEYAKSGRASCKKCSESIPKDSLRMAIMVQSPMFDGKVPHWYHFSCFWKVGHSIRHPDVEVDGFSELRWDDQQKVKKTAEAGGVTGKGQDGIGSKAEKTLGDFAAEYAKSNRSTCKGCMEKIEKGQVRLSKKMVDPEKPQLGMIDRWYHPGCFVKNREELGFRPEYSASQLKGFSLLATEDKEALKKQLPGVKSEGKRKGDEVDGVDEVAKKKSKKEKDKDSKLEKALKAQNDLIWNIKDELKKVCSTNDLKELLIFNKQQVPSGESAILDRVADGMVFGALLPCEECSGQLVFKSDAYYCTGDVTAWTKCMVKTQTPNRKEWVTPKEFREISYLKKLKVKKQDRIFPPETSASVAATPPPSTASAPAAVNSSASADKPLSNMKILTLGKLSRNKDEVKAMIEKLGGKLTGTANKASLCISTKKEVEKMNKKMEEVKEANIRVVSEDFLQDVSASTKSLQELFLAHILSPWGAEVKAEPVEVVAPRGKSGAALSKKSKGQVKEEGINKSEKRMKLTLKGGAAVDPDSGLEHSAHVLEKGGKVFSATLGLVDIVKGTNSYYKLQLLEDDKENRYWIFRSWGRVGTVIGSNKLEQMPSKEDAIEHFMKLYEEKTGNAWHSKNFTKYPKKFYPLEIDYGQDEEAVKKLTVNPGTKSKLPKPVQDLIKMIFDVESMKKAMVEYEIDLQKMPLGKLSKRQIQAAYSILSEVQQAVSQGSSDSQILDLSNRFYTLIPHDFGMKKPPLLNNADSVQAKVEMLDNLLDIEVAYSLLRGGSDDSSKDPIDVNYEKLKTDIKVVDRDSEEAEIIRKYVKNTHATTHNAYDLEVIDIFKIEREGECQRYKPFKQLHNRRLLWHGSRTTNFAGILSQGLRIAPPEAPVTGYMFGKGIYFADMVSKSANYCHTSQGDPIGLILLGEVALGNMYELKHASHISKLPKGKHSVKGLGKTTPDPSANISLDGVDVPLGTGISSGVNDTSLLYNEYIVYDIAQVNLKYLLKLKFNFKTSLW
Counter-ions that a name gives are not always drawn.

| Compound | IC50 |
| --- | --- |
| Cc1c(Cc2ccc(F)c(C(=O)N3CC(=O)N(C4CCCC4)[C@H](C(C)C)C3)c2)n[nH]c(=O)c1C [Example 207] | 5 to 25 nM |
| CCc1cc(Cc2ccc(F)c(C(=O)N3CCN(C4CCc5ccccc5C4)C(=O)C3)c2)n[nH]c1=O (stereo not drawn) [Example 148] | < 5 nM |

[Q] What does the data say about its IC50? Entry: Cc1c(Cc2ccc(F)c(C(=O)N3CC(=O)N(C4C[C@H]5CC[C@@H]4C5)C(C)C3)c2)n[nH]c(=O)c1C (stereo partly drawn) [Example 140, trifluoroacetate]
[A] 5 to 25 nM

----------
tested on: BRCA-1 silenced HeLa cells (HeLa shBRCA1-GFP); test: Proliferation assay in BRCA-1 silenced HeLa cells; type: cell-based; conditions: Homo sapiens; BRCA1 silenced HeLa cells, 168 hours; read-out: CC50 in the BRCA1 silenced HeLa cells
Where a name gives a salt, the structure may show the parent alone.
Quantity kind: CC50

# annotated cases, reported CC50 shown
| Compound | CC50 |
| --- | --- |
| Cc1c(Cc2ccc(F)c(C(=O)N3CCN(C4CCCCC4)C(=O)C3C)c2)n[nH]c(=O)c1C (stereo not drawn) [Example 35, trifluoroacetate] | < 5000 nM |
| Cc1c(Cc2ccc(F)c(C(=O)N3CCN(c4ccccc4Cl)C(=O)C3)c2)n[nH]c(=O)c1C [Example 14, trifluoroacetate] | 50 to 500 nM |
| Cc1c(Cc2ccc(F)c(C(=O)N3CCN(C4CCC(c5ccccc5)C4)C(=O)C3)c2)n[nH]c(=O)c1C (stereo not drawn) [Example 119, trifluoroacetate] | < 50 nM |

[Q] What does the data say about its CC50? Entry: Cc1c(Cc2ccc(F)c(C(=O)N3CCN(c4ccc(F)c(F)c4)C(=O)C3)c2)n[nH]c(=O)c1C(F)(F)F [Example 26, trifluoroacetate]
[A] < 50 nM

[Q] What does the data say about its CC50? Entry: Cc1c(Cc2ccc(F)c(C(=O)N3CC(=O)N(c4ccccc4)[C@H](C)C3)c2)n[nH]c(=O)c1C (single isomer, unassigned) [Example 78 (LL4B)]
[A] < 50 nM

[Q] What does the data say about its CC50? Entry: Cc1c(Cc2ccc(F)c(C(=O)N3CC(=O)N(c4cc(F)cc(Cl)c4)[C@H](C)C3)c2)n[nH]c(=O)c1C [Example 198]
[A] < 50 nM
